# experiment_notes: Pharmacokinetic test in mice (IV and PO)
# Assay type: in vivo, BALB/c mice
# run_conditions: BALB/c, mouse, plasma; mice, IV 1 mg/kg (C0)
# Experimental: In this example, the pharmacokinetic behavior of the compounds after intravenous injection (IV) and intragastric (PO) administration in BALB/c mice was tested. On the day of administration, mice were weighed for actual body weight and the administration volume was calculated. […] Plasma concentrations were determined by a LC-MS/MS method. […] The relevant pharmacokinetic parameters were calculated by a linear logarithmic trapezoid method.
Field 'label' (enum: Met / Not met). Set to Met when Cmax is strictly under 3000 nM; else Not met.

The following compounds have reported results that may help.
O=S1(=O)c2cc(-c3nnc(C(F)F)o3)ccc2CN1[C@H](c1ccccn1)[C@H](O)c1ccc(F)cn1: Met
Cn1cc([C@@H]([C@H](O)c2ccccc2)N2Cc3ccc(-c4nnc(C(F)F)o4)cc3S2(=O)=O)cn1: Met
O=C(N[C@@H]1CCOC[C@H]1N1Cc2ccc(-c3nnc(C(F)F)o3)cc2S1(=O)=O)C(F)F: Not met
O=C(N[C@@H]1CCCC[C@H]1N1Cc2ccc(-c3nnc(C(F)F)o3)cc2S1(=O)=O)N1CCOCC1: Not met

Now for a further compound.
Input line: # TODO verify Cmax < 3000 nM strictly for this compound: CC(F)(F)C(=O)N[C@@H]1CCCC(F)(F)[C@H]1N1Cc2ccc(-c3nnc(C(F)F)o3)cc2S1(=O)=O
Output line: Met
